Values were extracted from patent US20250340608A1.

system: T1, human ferroportin (SLC40A1) fused in frame with GFP, stably expressed in HEK293 cells (human, UniProt Q9NP59 1-571)
T1 sequence (looked up): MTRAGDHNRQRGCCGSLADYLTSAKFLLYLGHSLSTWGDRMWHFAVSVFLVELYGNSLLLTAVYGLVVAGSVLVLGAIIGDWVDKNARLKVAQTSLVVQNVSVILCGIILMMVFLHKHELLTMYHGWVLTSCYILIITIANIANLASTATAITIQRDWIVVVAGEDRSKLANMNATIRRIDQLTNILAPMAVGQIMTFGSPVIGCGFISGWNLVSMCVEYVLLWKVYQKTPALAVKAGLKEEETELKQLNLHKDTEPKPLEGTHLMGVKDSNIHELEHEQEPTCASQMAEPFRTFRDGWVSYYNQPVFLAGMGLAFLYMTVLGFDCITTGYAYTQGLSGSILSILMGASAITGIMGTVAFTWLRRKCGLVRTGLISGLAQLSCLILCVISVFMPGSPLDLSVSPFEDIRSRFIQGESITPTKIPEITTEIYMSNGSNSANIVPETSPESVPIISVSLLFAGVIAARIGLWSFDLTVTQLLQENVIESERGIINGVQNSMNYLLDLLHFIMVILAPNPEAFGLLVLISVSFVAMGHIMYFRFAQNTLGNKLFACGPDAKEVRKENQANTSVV
assayName: cell-based or functional assay
The label is Condition met for Potency: % (activity) at 1 µM below 60% and Condition not met for Potency: % (activity) at 1 µM equal to or exceeding 60%.

Given H-DTHFPCIKFF-NH2 [Compound 297] , is recorded Potency: % (activity) at 1 µM strictly lower than 60%?
Condition not met

Strictly below 60% in Potency: % (activity) at 1 µM? H-LTHFPCIIF-NH2 [Compound 299]
Condition not met

Lab log: compare recorded Potency: % (activity) at 1 µM with 60%; is it strictly lower for H-DTHFPCILF-NH2 [Compound 308] ?
Condition not met

Please determine if H-DTHFPCIVF-NH2 [Compound 307] is below 60% in terms of Potency: % (activity) at 1 µM.
Condition not met

For this binder, is Potency: % (activity) at 1 µM lower than 60%? H-ETHFPCIIF-NH2 [Compound 300]
Condition not met

Here's an entry: H-DTHFPCILK-NH2 [Compound 309] . Is its Potency: % (activity) at 1 µM below 60%?
Condition met
